# System: HCoV-OC43
# TEST METHOD NOTES: microbe, parasite or virus in culture
# Format: cell-based, Human Coronavirus
# CONDITION PARAMETERS: Betacoronavirus 1, OC43, MRC5
EXPERIMENTAL ENDPOINT: pEC50
Scale explanation: pEC50 corresponds to minus log10 of a concentration expressed in moles per litre.

Challenge: Endpoint output: pEC50 of O=c1ccn([C@@H]2O[C@H](CO)[C@@H](O)[C@H]2O)c(=S)[nH]1 [2-thiouridine] . Value?
Response given: 4.89

----------
# Tested on: JEV
# TEST METHOD NOTES: microbe, parasite or virus in culture
# Assay type: cell-based
# CONDITION PARAMETERS: Japanese encephalitis virus, BHK-21, 72 h
EXPERIMENTAL ENDPOINT: EC50
Kindly format the answer as number then unit.

Challenge: Endpoint output: EC50 of O=c1ccn([C@@H]2O[C@H](CO)[C@@H](O)[C@H]2O)c(=S)[nH]1 [2-thiouridine] . Value?
Response given: 4.8 µM

----------
# TEST METHOD NOTES: in vitro
# CONDITION PARAMETERS: human
EXPERIMENTAL ENDPOINT: CC50

Challenge: Endpoint output: CC50 of O=c1ccn([C@@H]2O[C@H](CO)[C@@H](O)[C@H]2O)c(=S)[nH]1 . Value?
Response given: > 50 µM

----------
# TEST METHOD NOTES: in vitro
# CONDITION PARAMETERS: Syrian hamster
EXPERIMENTAL ENDPOINT: CC50

Challenge: Endpoint output: CC50 of O=c1ccn([C@@H]2O[C@H](CO)[C@@H](O)[C@H]2O)c(=S)[nH]1 . Value?
Response given: > 50 µM
